Tested on: RPMI-8226
TEST METHOD NOTES: NCI tumour cell line growth inhibition, 48 h
The source made the active and inactive calls. No stated cut-off is given here; in the data, active = GI50 up to about 1.1 µM and inactive = higher.

{"columns": ["COMPOUND", "GI50"],
 "data": [
  ["CCCCCCCCOC(=O)c1cc([N+](=O)[O-])c(Sc2[nH]cnc3ncnc2-3)c([N+](=O)[O-])c1", "0.512 µM (active)"],
  ["O=C(O)C[C@H]1CCCCC12CCOC2=O (stereo partly specified)", "> 100 µM (inactive)"],
  ["N#CC(NNC(=O)c1ccccc1O)c1c(O)ccc2ccccc12 (stereo unspecified)", "3.48 µM (inactive)"],
  ["CC(C)C(Br)CC/C(CBr)=C(\\Cl)CCl (stereo unspecified)", "2 µM (inactive)"],
  ["CCOC(=O)c1cc2cc(CSc3ccccc3)ccc2oc1=O", "51.9 µM (inactive)"],
  ["NC(=O)NCc1c(C(N)=O)ncn1Cc1ccccc1", "> 100 µM (inactive)"],
  ["COc1ccc(N2C(=O)C3c4[nH]c5ccc(C)cc5c4C4CCC(C(C)(C)C)CC4C3C2=O)cc1 (stereo unspecified)", "11.2 µM (inactive)"],
  ["N#CCc1c(-c2ccccc2)n(S(=O)(=O)c2ccccc2)c2ccccc12", "31.2 µM (inactive)"],
  ["COc1cccc(C[C@H]2COC(=O)[C@]2(O)Cc2cccc(OC)c2)c1", "93.3 µM (inactive)"],
  ["CS/C(Nc1ccccc1)=C1\\C(=O)N(c2ccccc2)N=C1C", "> 100 µM (inactive)"],
  ["Cc1ccc(S(=O)(=O)N/N=C2/CCC3(O)CC2(C)CCC2[C@H]3CC2(C)C)cc1 (stereo partly specified)", "38.4 µM (inactive)"]
]}

* * *

Consider the following compounds and their measured GI50 readings.
System: NCI-H226
TEST METHOD NOTES: NCI tumour cell line growth inhibition, 48 h
Calls of active or inactive are those of the source. Cut-off read from the data, not from the text of the source: active = GI50 up to about 1.1 µM and inactive = higher.

{"columns": ["COMPOUND", "GI50"],
 "data": [
  ["COc1c(-c2nc3ccc(N4CCN(C)CC4)cc3[nH]2)cc(OC)c2[nH]c(COC(C)=O)nc12", "> 100 µM (inactive)"],
  ["CC1(C)CN=C(Nc2ccc(F)c(Cl)c2)S1", "> 100 µM (inactive)"],
  ["O=C1NCN(c2ccccc2)C12CCN(CCCN1CCN(CCOC(c3ccccc3)c3ccccc3)CC1)CC2", "2.96 µM (inactive)"],
  ["CC(C)(C)C(=O)Oc1ccc(/C=C/C(=O)c2ccc(OC(=O)C(C)(C)C)cc2)cc1", "> 100 µM (inactive)"],
  ["O=CC1=CCCN(CCc2c[nH]c3ccccc23)C1", "46.3 µM (inactive)"],
  ["CN(Cc1nc2c(N)nc(N)nc2nc1N)c1ccc(C(=O)NC(CCC(=O)O)C(=O)O)cc1 (stereo not given)", "> 100 µM (inactive)"],
  ["O=C1Nc2ccccc2/C1=C1/Nc2ccccc2/C1=N\\OCCOC1OCC(O)C(O)C1O (stereo not given)", "69.3 µM (inactive)"],
  ["C[n+]1cc2cc(O)c(O)cc2c2ccc3cc(O)c(O)cc3c21.c1ccncc1", "4.86 µM (inactive)"],
  ["CC/C(Cl)=N\\OC(=O)Nc1ccc(OC)cc1", "12.2 µM (inactive)"],
  ["COc1ccc(NCc2cc(OC)cc(OC)c2)cc1", "38.3 µM (inactive)"]
]}
